Test: in vitro stability in 10% rat plasma, LC-MS/MS
Assay type: in vitro ADME
Details: room temperature, 100 ng/ml, 2 h
Readout: remaining at 2 h, 100 ng/ml (%)

P. Ac-WVTHRLAGLLSQSGGVVRKNFVPTDVGPFAF-NH2 [compound 37]
Q. Ac-WVTHQLAGLLSQSGGVVRKNFVPTDVGPFAF-NH2 [compound 39]
Select one: P or Q . Criterion: greater recorded remaining at 2 h, 100 ng/ml. When you have decided, please share the label of that item. Q
(Q: 29.9%, P: 10.5%)

* * *

Assay: rat pharmacokinetic studies
Conditions: rat, IV, 2 mg/kg; mean, n = 3
PEG = not defined here
Readout: t1/2 (h)
# value in h; strip the unit string

Take a look at these entries with their results.
SEQ ID NO: 32: PEGylated R11Cit, R18Cit analog (product of SEQ ID NO:31) (WVTHXLAGLLSXSGGVVRKNFVPTDVGPFAF; PEGylated; citrulline at 11 and 18; CGRP peptide; MOD_RES (1)..(1): …ON; MISC_FEATURE (5)..(5): xaa=citrulline; MISC_FEATURE (12)..(12): xaa=citrulline; MISC_FEATURE (19)..(19): PEGylated; MOD_RES (31)..(31): AMIDATION): 42.78
SEQ ID NO: 26: PEGylated double homoarginine analog (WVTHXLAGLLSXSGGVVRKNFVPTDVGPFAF; PEGylated; homoarginine residues; CGRP peptide; MOD_RES (1)..(1): …ON; MISC_FEATURE (5)..(5): xaa=homoarginine; MISC_FEATURE (12)..(12): xaa=homoarginine; MISC_FEATURE (19)..(19): PEGylated; MOD_RES (31)..(31): AMIDATION): 7.39
SEQ ID NO: 40: double glutamine analog PEGylated through amine linkage (Ac-WVTHQLAGLLSQSGGVVRK(PEG)NFVPTDVGPFAF-NH2; reading uncertain): 32.57

Next up:
// lookup t1/2 for SEQ ID NO: 15: 20 kDa PEG conjugate of SEQ ID NO:7 (reductive alkylation) (Ac-WVTHRLAGLLSRSGGVVRK(20 kDa PEG)NFVPTDVGPFAF-NH2) 10.60
